# Test description: Quantitative High-Throughput drug screen in 47 multiple myeloma cell lines against the NCATS MIPE library collection: KMM1_JCRB cell viability assay (AID 1918960); also: potency is read from the fitted curve at half-maximal effect; nearly all actives have a fitted effect of over 30% in size
# Test context: KMM1 myeloma viability, CellTiter-Glo ATP luminescence, 48 h; series mostly up to 45.8 µM
Inconclusive results are not listed. Active and inactive are the calls of the source. Calls follow the shape of the dose curve; as a rule, active = well fitted cell-killing curve with a large enough effect; inconclusive = small, poorly fitted or top-dose-only effect, or effect the other way; inactive = no such curve, though single readings can be large or run the other way.
Test readout: Potency

[
  {
    "Smiles repr": "C=C1[C@H](n2cnc3c(=O)[nH]c(N)nc32)C[C@H](O)[C@H]1CO",
    "Assay result": "18.7 µM (active)"
  }
]

Note: attention shifts to another entry.
Can you share its Potency? I mean this compound: `COc1ccc2cc1Oc1ccc(cc1)C[C@H]1c3cc(c(OC)cc3CCN1C)Oc1c(OC)c(OC)cc3c1[C@H](C2)N(C)CC3`
5.9 µM (active)

###

# Test description: qHTS of pediatric cancer cell lines to identify multiple opportunities for drug repurposing: Primary screen for TC32 cells (AID 1347089); also: nearly all actives have a fitted effect of over 60% in size; also: potency is read from the fitted curve at half-maximal effect
# Test context: TC32 Ewing sarcoma viability, CellTiter-Glo luminescence, 48 h; series mostly up to 45.8 µM
# Experimental: Drug repurposing or repositioning has been offered as a strategy for drug development in oncology programs. […] [1] Shen, M et al. Quantitative high-throughput phenotypic screening of pediatric cancer cell lines identifies multiple opportunities for drug repurposing. […] Cells were assayed in growth media at a density of 500-1,000 cells/well. […] After a 15min incubation at room temperature, samples were analyzed for luminescence intensity using a ViewLux High-throughput CCD imager equipped with clear filters.
Inconclusive results are not listed. The source made the active and inactive calls. The call rests on the fitted dose curve; in most records, active means well fitted cell-killing curve with a large enough effect; inconclusive means small, poorly fitted or top-dose-only effect; inactive means flat fitted curve, though single readings scatter.
Test readout: Potency

[
  {
    "Molecule": "O=c1[nH]c(=O)n([C@H]2C[C@@H](O)[C@@H](CO)O2)cc1C(F)(F)F",
    "Test readout": "Potency",
    "Assay result": "7.39 µM (active)"
  },
  {
    "Molecule": "COc1cccc(OC)c1-c1cc(C(=O)NC2(C(=O)O)C3CC4CC(C3)CC2C4)nn1-c1ccnc2cc(Cl)ccc12 (stereo unspecified)",
    "Test readout": "Potency",
    "Assay result": "inactive"
  },
  {
    "Molecule": "Nc1nc(Cl)nc2c1ncn2[C@@H]1O[C@H](CO)[C@@H](O)[C@H]1F",
    "Test readout": "Potency",
    "Assay result": "0.0234 µM (active)"
  },
  {
    "Molecule": "COc1cc(Nc2nc3ccccc3nc2NS(=O)(=O)c2ccc(NC(=O)c3ccc(C)c(OC)c3)cc2)cc(OC)c1",
    "Test readout": "Potency",
    "Assay result": "inactive"
  },
  {
    "Molecule": "COc1cc2c(cc1OC)CC(=O)N(CCCN(C)C[C@H]1Cc3cc(OC)c(OC)cc31)CC2",
    "Test readout": "Potency",
    "Assay result": "inactive"
  }
]

Note: attention shifts to another entry.
Can you share its Potency? I mean this molecule: `O=S(=O)(O)c1ccc2cc(N=Nc3cc(S(=O)(=O)O)c4cccnc4c3O)ccc2c1`
inactive

###

Answer each item with its documented parasite growth remaining, % of DMSO control (lower = more inhibition).
# Test description: qHTS profiling of the MIPE4 collection as inhibitors of Plasmodium falciparum (DD2) proliferation (AID 743345)
# Test context: P. falciparum Dd2 in erythrocytes, SYBR Green DNA, 72 h; at 28.5 µM (top of the series) unless noted
One number for each entry, in % [at 9.64 µM].

[
  {
    "Smiles repr": "Cc1ccc(S(=O)(=O)Nc2nc3ccccc3nc2Nc2ccc3nsnc3c2)cc1",
    "Assay result": 88
  }
]

Can you share its parasite growth remaining, % of DMSO control (lower = more inhibition)? I mean this compound: `CN[C@@H]1CN(c2ccc3c(=O)c(C(=O)O)cn(-c4nccs4)c3n2)C[C@@H]1OC`
7.58

###

# Tested on: Tov-21-G
# Test description: Primary qHTS to identify gynecologic anti-cancer compounds using libraries of approved drugs and bioactive compounds (AID 1345084); also: % is scaled to controls: 0 for no effect and ±100 for the full control effect; nearly all actives have a fitted effect of over 55% in size
# Test context: Gynecologic cancer cell panel viability, ATPlite luminescence, 48 h; series mostly up to 57.5 µM
# Excerpt: National Center for Advancing Translational Sciences [NCATS] Assay Overview: Chemotherapeutic drug responses vary from cancer to cancer and from patient to patient. […] ATPlite is a luminescence based assay reliant on the conversion of a luciferase substrate to light in the presence of ATP. As a cytotoxic compound will suppress growth and decrease the number of cells, the concentration of ATP will decrease, and less light signal will be detected in the well. […]
Results filed as inconclusive are left out. Calls of active or inactive are those of the source. Calls come from the whole dose curve; as a rule, active = well fitted cell-killing curve with a large enough effect; inconclusive = small, poorly fitted or top-dose-only effect, or effect the other way; inactive = flat fitted curve, though single readings scatter.
Parameter call: string, one of active, inactive

Outcome? `O=C(Nc1cccc2c(=O)cc(-c3nn[nH]n3)oc12)c1ccc(OCCCCc2ccccc2)cc1`
inactive
